system: Moraxella catarrhalis; assay: Antibacterial activity against Moraxella catarrhalis BCA 19-6 assessed as inhibition of bacterial growth incubated for 24 hrs by CLSI based broth microdilution method; assay type: functional; conditions: Moraxella catarrhalis, BCA 19-6, 24 h, read-out: MIC
Please respond with reported MIC for every item in the list.
Numbers only, in µg/mL.

Example cases with answers are listed next.
smiles text: CC[C@H]1OC(=O)[C@@](C)(F)C(=O)[C@H](C)[C@@H](O[C@@H]2O[C@H](C)C[C@H](N(C)C)[C@H]2O)[C@](C)(OC)C[C@@H](C)C(=O)[C@H](C)[C@H]2N(CCCOC(=O)Nc3c(C)noc3C)C(=O)O[C@]12C
subject of test: Moraxella catarrhalis
metric name: MIC
uom: µg/mL
recorded number: 0.5
--
smiles text: CC[C@H]1OC(=O)[C@@](C)(F)C(=O)[C@H](C)[C@@H](O[C@@H]2O[C@H](C)C[C@H](N(C)C)[C@H]2O)[C@](C)(OC)C[C@@H](C)C(=O)[C@H](C)[C@H]2N(CCCOC(=O)Nc3ccccc3OC)C(=O)O[C@]12C
subject of test: Moraxella catarrhalis
metric name: MIC
uom: µg/mL
recorded number: 0.41
--
smiles text: CC[C@H]1OC(=O)[C@@](C)(F)C(=O)[C@H](C)[C@@H](O[C@@H]2O[C@H](C)C[C@H](N(C)C)[C@H]2O)[C@](C)(OC)C[C@@H](C)C(=O)[C@H](C)[C@H]2N(CCCOC(=O)Nc3ccc(-c4ncccn4)cc3)C(=O)O[C@]12C
subject of test: Moraxella catarrhalis
metric name: MIC
uom: µg/mL
recorded number: 45

"CC[C@H]1OC(=O)[C@@](C)(F)C(=O)[C@H](C)[C@@H](O[C@@H]2O[C@H](C)C[C@H](N(C)C)[C@H]2O)[C@](C)(OC)C[C@@H](C)C(=O)[C@H](C)[C@H]2N(CCCOC(=O)Nc3ccccc3C)C(=O)O[C@]12C" yielded MIC of 0.125

====

system: Moraxella catarrhalis; test: Antibacterial activity against Moraxella catarrhalis BCA 19-5 assessed as inhibition of bacterial growth incubated for 24 hrs by CLSI based broth microdilution method; type: functional; conditions: Moraxella catarrhalis, BCA 19-5, 24 h, read-out: MIC
metric name: MIC

compound: CCOc1ccccc1NC(=O)OCCCN1C(=O)O[C@]2(C)[C@@H](CC)OC(=O)[C@@](C)(F)C(=O)[C@H](C)[C@@H](O[C@@H]3O[C@H](C)C[C@H](N(C)C)[C@H]3O)[C@](C)(OC)C[C@@H](C)C(=O)[C@H](C)[C@@H]12
MIC: 0.125 mg/L

Next compound, please.
CC[C@H]1OC(=O)[C@H](C)[C@@H](O[C@H]2C[C@@](C)(OC)[C@@H](O)[C@H](C)O2)[C@H](C)[C@@H](O[C@@H]2O[C@H](C)C[C@H](N(C)C)[C@H]2O)[C@](C)(O)C[C@@H](C)CN(C)[C@H](C)[C@@H](O)[C@]1(C)O [AZITHROMYCIN] yielded MIC of > 64 mg/L

====

Please respond with reported MIC for every item in the list.
system: Staphylococcus epidermidis; test: Antibacterial activity against erythromycin-resistant Staphylococcus epidermidis 19-9 assessed as inhibition of visible bacterial growth incubated for 18 hrs by broth microdilution method; type: functional
One number for each entry, in µg/mL.

smiles text: CCOc1ccc(NC(=O)OCCCN2C(=O)O[C@]3(C)[C@@H](CC)OC(=O)[C@@](C)(F)C(=O)[C@H](C)[C@@H](O[C@@H]4O[C@H](C)C[C@H](N(C)C)[C@H]4O)[C@](C)(OC)C[C@@H](C)C(=O)[C@H](C)[C@@H]23)cc1
MIC [µg/mL]: 0.5

Next compound, please.
"CC[C@H]1OC(=O)[C@@](C)(F)C(=O)[C@H](C)[C@@H](O[C@@H]2O[C@H](C)C[C@H](N(C)C)[C@H]2O)[C@](C)(OC)C[C@@H](C)C(=O)[C@H](C)[C@H]2N(CCCOC(=O)Nc3cccc(F)c3C)C(=O)O[C@]12C" yielded MIC of 0.5
